Tested on: CAG foci in primary DM1 patient myoblasts
Assay: Single-cut screening: CAG foci staining
Format: cell-based, human
Conditions: single sgRNA, vehicle
PARAMETER MEASURED: % of CAG foci positive nuclei (Vehicle) (%)
Use % as the unit, but write only the number.

Recorded % of CAG foci positive nuclei (Vehicle) of ACAATAAATACCGAGGAATGTC (guide RNA; chemistry not fully specified) [SluD80] , please.
1.98

----------
System: CUG foci in primary DM1 patient myoblasts
Experiment: Single-cut screening: FISH staining of CUG RNA foci
Assay type: cell-based, human
Settings: single sgRNA; primary DM1 patient myoblasts; DNA-PKi treated
Quick reference: % of CUG foci free nuclei (DNA-PKi) of the listed items.
# value in %; strip the unit string

[[record]]
substance = "AGGACCCTTCGAgccccgttcg (as printed in the source, key not given here) [SluU62]"
val = 59.07


# lookup: % of CUG foci free nuclei (DNA-PKi) of gagggaggggccgggtccgcgg (GAGGGAGGGGCCGGGTCCGCGG; guide RNA; chemistry not fully specified) [SluU54]
53.64

Same thing, different substance: CCGCCGAAGCGGGCGGAGCCGG (guide RNA; chemistry not fully specified) [SluD59]
27.36

Subsequent entry: CGCCGAAGCGGGCGGAGCCGGC (guide RNA; chemistry not fully specified) [SluD58]
31.45

And what about the substance CGCGCCAGACGCTCCCCAGAGC (listed as DNA, chemistry not fully specified) [SluD34] ?
31.92

Next substance up: cccctccctccccggccGCTAG (guide RNA; as printed in the source, key not given here) [SluU46]
62.89

Repeat with GGGCTCCGAGAGCAGCGCAAGT (guide RNA; chemistry not fully specified) [SluD53]
41.45

Another substance to check: TTATTCGCGAGGGTCGGGGGTG (guide RNA; chemistry not fully specified) [SluD89]
11.37

Entry to check: TCCGGGCCCGCCCCCTAGCggc (guide RNA; as printed in the source, key not given here) [SluU36]
40.62

----------
Tested on: CAG foci in primary DM1 patient myoblasts
Assay: Single-cut screening: CAG foci staining
Assay type: cell-based, human
Settings: single sgRNA, vehicle
PARAMETER MEASURED: % of CAG foci positive nuclei (Vehicle) (%)
# number only, unit % dropped from output

[[record]]
query_sequence = "GGTCGGGGGTGGGGGTCCTAGG (guide RNA; chemistry not fully specified) [SluD86]"
parameter_measured = "% of CAG foci positive nuclei (Vehicle)"
unit_label = "%"
val = 1.98

[[record]]
query_sequence = "CGGCTCCGCCCGCTTCGGCGGT (guide RNA; chemistry not fully specified) [SluD60]"
parameter_measured = "% of CAG foci positive nuclei (Vehicle)"
unit_label = "%"
val = 1.02


Field: next sequence
Dear colleague, I am looking for the recorded % of CAG foci positive nuclei (Vehicle) of the following sequence: TGTCTTCGACTCCGGGGCCCCG (listed as DNA, chemistry not fully specified) [SluU06]
1.01

----------
Test system: CUG foci in primary DM1 patient myoblasts
Assay: Single-cut screening: FISH staining of CUG RNA foci
Type: cell-based, human
Conditions: single sgRNA; primary DM1 patient myoblasts; DNA-PKi treated
Measured % of CUG foci free nuclei (DNA-PKi) values are reported for all entries that follow.
The figure you give is taken to be in %; do not add the unit.

Consider the following illustrative entries.
[[record]]
substance = "GAGAGCAGCGCAAGTGAGGAGG (listed as DNA, chemistry not fully specified) [SluD48]"
parameter_measured = "% of CUG foci free nuclei (DNA-PKi)"
val = 25.41

[[record]]
substance = "gcccctccctccccggccGCTA (guide RNA; as printed in the source, key not given here) [SluU48]"
parameter_measured = "% of CUG foci free nuclei (DNA-PKi)"
val = 24.81

[[record]]
substance = "AGACAATAAATACCGAGGAATG (guide RNA; chemistry not fully specified) [SluD82]"
parameter_measured = "% of CUG foci free nuclei (DNA-PKi)"
val = 29.51

[[record]]
substance = "tccctccccggccGCTAGGGGG (guide RNA; as printed in the source, key not given here) [SluU43]"
parameter_measured = "% of CUG foci free nuclei (DNA-PKi)"
val = 28.61

[[record]]
substance = "CGCCCAGCTCCAGTCCTGTGAT (guide RNA; chemistry not fully specified) [SluU27]"
parameter_measured = "% of CUG foci free nuclei (DNA-PKi)"
val = 38.24


Report % of CUG foci free nuclei (DNA-PKi) for TCTTGTGCATGACGCCCTGCTC (guide RNA; chemistry not fully specified) [SluD31] tested on CUG foci in primary DM1 patient myoblasts.
23.95

For AGGGCCTTTTATTCGCGAGGGT (guide RNA; chemistry not fully specified) [SluD96] then?
31.02

Taken from patent US20240173432A1.
